- Procedure Text: inhibitors of E-selectin induction by TNFa, primary screen, imaging, HUVEC, immunofluorescence, MLSMR starter and 10KST1 sets (AID 487);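 further: signal is fraction of cell area covered by stained E-selectin grains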
- Test Conditions: HUVEC TNFalpha-induced E-selectin immunofluorescence imaging, at 2 µM; stronger effect = higher value
Reported inhibition by item:

{"Molecule": "CCCc1cc(NCCN2CCOCC2)n2c(nc3ccccc32)c1C#N", "inhibition, %": -144}
{"Molecule": "Cc1ccc(-c2nn(-c3ccccc3)cc2CN(Cc2ccccc2)C(=O)CCC(=O)O)o1", "inhibition, %": -66.8}
{"Molecule": "CCOC(=O)c1ccc(COC(=O)c2cc3ccccc3oc2=O)o1", "inhibition, %": -39.1}
{"Molecule": "Cc1c(C2CC(=O)N(c3ccccc3)C2=O)[nH]n(-c2ccccc2)c1=O (stereo not given)", "inhibition, %": -97.6}
{"Molecule": "COc1ccc(N(CC(=O)O)S(=O)(=O)c2ccc(OC)c(OC)c2)cc1", "inhibition, %": -11.5}

====

Reported z-score by item:
- Procedure Text: DUSP6 inhibitors restoring Erk phosphorylation by chemical complementation, primary imaging in DUSP6-transfected HeLa (AID 609)
- Test Conditions: HeLa MKP-3 transfected, phospho-Erk imaging KS statistic; measured here: nuclear pErk red intensity z-score; at 10 µM; stronger effect = higher value; cells stimulated with TPA for 15 min

{"Compound": "CC1CCN(c2[nH]c(=S)c(C#N)c3c2CCCC3)CC1", "z-score": 1.46}
{"Compound": "CCOC(=O)/C(C#N)=C1/SC(CCO)C(=O)N1c1ccccc1 (stereo unspecified)", "z-score": 0.776}
{"Compound": "CCCc1cc(Nc2c(C)n(C)n(-c3ccccc3)c2=O)n2c(nc3ccccc32)c1C#N", "z-score": -0.99}
{"Compound": "O=C(c1ccccc1)c1cc(-c2ccccc2)on1", "z-score": 0.519}
{"Compound": "CC1(C)NC(=O)N(CC(O)COc2cc3ccccc3cc2C(=O)N2CCCCC2)C1=O (stereo unspecified)", "z-score": -0.435}
{"Compound": "CCCC(=O)Nc1nn(CCC)c2nc3ccccc3cc12", "z-score": 0.919}
{"Compound": "C=CCOc1nc2c(c(=O)n(Cc3ccc(Cl)cc3)c(=O)n2C)n1C", "z-score": 0.796}
{"Compound": "N#Cc1nc(-c2cccs2)oc1NCc1ccccc1", "z-score": 0.281}
{"Compound": "COc1cccc(C2=CC(c3ccc(N(C)C)cc3)n3nnnc3N2)c1 (stereo unspecified)", "z-score": 0.0937}
{"Compound": "COc1cccc(NC(=O)c2cc(C(=O)Nc3cccc(OC)c3)n(C)n2)c1", "z-score": 0.57}
{"Compound": "Cc1ccc(CNC(=O)c2cc3c(=O)n4ccccc4nc3n(Cc3ccco3)c2=N)cc1", "z-score": -0.239}

====

Reported fluorescence slope by item:
- Assay System: Voltage-gated potassium channel subunit beta-2 (Rattus norvegicus) (UniProt P62483)
- Sequence (P62483 whole entry, looked up): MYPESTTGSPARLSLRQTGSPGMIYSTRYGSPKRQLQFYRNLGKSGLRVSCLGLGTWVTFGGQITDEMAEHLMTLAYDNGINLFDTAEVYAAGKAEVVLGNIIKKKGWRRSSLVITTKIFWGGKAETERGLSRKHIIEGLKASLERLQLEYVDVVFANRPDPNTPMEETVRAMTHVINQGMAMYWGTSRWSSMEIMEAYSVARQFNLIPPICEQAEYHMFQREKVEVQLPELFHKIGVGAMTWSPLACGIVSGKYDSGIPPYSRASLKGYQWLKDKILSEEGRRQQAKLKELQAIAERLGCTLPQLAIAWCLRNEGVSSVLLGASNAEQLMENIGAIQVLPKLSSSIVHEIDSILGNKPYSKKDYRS
- Procedure Text: KvBeta enzyme negative modulators, primary screen, biochemical, NADPH fluorescence (AID 622);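 further: slope of raw intensity against log time taken from 70 to 1610 s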
- Test Conditions: recombinant KvBeta, 4-cyanobenzaldehyde reduction, at 10 µM, stronger effect = higher value

{"Compound": "CCOc1ccc(NC(=O)CN(c2cc(C)cc(C)c2)S(=O)(=O)c2c(C)noc2C)cc1", "fluorescence slope": -0.574}
{"Compound": "CCOC(=O)C(C)(C)Sc1nc2c(cnn2-c2ccc(C)cc2)c(=O)[nH]1", "fluorescence slope": -0.626}
{"Compound": "OC1(C2(O)CC(c3ccccc3)ON2)CCCCC1 (stereo not given)", "fluorescence slope": -0.444}
{"Compound": "Cc1cc(-n2c(C)cc(C(=O)CSc3nnnn3-c3ccc(Cl)cc3)c2C)no1", "fluorescence slope": -0.403}
{"Compound": "O=C1CC(N2CCN(C3CCc4ccccc4C3)CC2)C(=O)N1c1ccccc1 (stereo not given)", "fluorescence slope": -0.378}

====

- Assay System: Dual specificity protein phosphatase 6 (Homo sapiens) (UniProt Q16828)
- Sequence (Q16828 whole entry, looked up): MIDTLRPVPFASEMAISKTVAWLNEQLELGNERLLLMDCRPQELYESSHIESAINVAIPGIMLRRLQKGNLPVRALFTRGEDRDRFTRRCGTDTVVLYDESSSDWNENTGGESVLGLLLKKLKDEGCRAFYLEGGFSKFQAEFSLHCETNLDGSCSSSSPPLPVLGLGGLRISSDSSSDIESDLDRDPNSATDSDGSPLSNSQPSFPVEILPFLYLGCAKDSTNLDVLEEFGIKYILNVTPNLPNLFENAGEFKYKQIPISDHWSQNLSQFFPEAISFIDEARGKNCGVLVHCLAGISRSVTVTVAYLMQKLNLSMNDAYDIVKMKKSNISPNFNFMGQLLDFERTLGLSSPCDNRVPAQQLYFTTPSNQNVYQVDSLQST
- Procedure Text: DUSP6 inhibitors restoring Erk phosphorylation by chemical complementation, primary imaging in DUSP6-transfected HeLa (AID 609);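 on inhibition: phospho-Erk level distribution per well compared with pooled transfected vehicle control wells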
- Test Conditions: HeLa MKP-3 transfected, phospho-Erk imaging KS statistic; at 10 µM; stronger effect = higher value; cells stimulated with TPA for 15 min
Calls of active or inactive are those of the source.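 How the source made its calls: active means compounds giving at least 50% inhibition in the cell-based MKP-3 phosphatase rescue imaging test; inactive means the rest.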
Reported inhibition by item:

{"Molecule": "CC(C)COc1ccc(C(=O)OCCN2CCOCC2)c(O)c1", "Assay System": "Dual specificity protein phosphatase 6 (Homo sapiens) (UniProt Q16828)", "inhibition": "19.8% (inactive)"}
{"Molecule": "Cc1ccc(S(=O)(=O)N(CC(O)CN2CCOCC2)c2cc(Cl)ccc2Cl)cc1 (stereo unspecified)", "Assay System": "Dual specificity protein phosphatase 6 (Homo sapiens) (UniProt Q16828)", "inhibition": "7.42% (inactive)"}
{"Molecule": "C=CCn1c(-c2ccc(OC)c(OC)c2)n[nH]c1=S", "Assay System": "Dual specificity protein phosphatase 6 (Homo sapiens) (UniProt Q16828)", "inhibition": "5.95% (inactive)"}
{"Molecule": "CC(NC(=O)c1ccc(=O)oc1)c1ccccc1 (stereo unspecified)", "Assay System": "Dual specificity protein phosphatase 6 (Homo sapiens) (UniProt Q16828)", "inhibition": "13.9% (inactive)"}
{"Molecule": "CCOC(=O)c1c(N)sc(=S)c2c1CCC2", "Assay System": "Dual specificity protein phosphatase 6 (Homo sapiens) (UniProt Q16828)", "inhibition": "-11.4% (inactive)"}
{"Molecule": "O=C(c1ccccc1)c1cc(-c2ccccc2)on1", "Assay System": "Dual specificity protein phosphatase 6 (Homo sapiens) (UniProt Q16828)", "inhibition": "-13.3% (inactive)"}

====

- Procedure Text: inhibitors of TNFa-induced NFkB p65 translocation, primary screen, imaging, HUVEC, MLSMR starter and 10KST1 sets (AID 438);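 further: compound added about 3h40 before a 20 min TNFalpha stimulation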
- Test Conditions: HUVEC TNFa-induced p65 nuclear translocation; measured here: nuclei count (cytotoxicity indicator), at 2.08 µM

{"Molecule": "CCN(CC)Cc1c(O)ccc2c(C)c(CC(=O)OC)c(=O)oc12", "cell count": 660}
{"Molecule": "Cc1cccc(-c2nnc3n2N=C(c2ccccc2)CS3)c1", "cell count": 713}
{"Molecule": "S=c1[nH]nc(-c2cccc(Br)c2)o1", "cell count": 242}
{"Molecule": "COC(=O)c1ccc(C2/C(=C(/O)c3ccc(OC)cc3)C(=O)C(=O)N2Cc2ccco2)cc1 (stereo unspecified)", "cell count": 603}
{"Molecule": "COc1ccc(NC(=O)c2c(C)cc(=O)oc2C)c(OC)c1", "cell count": 631}
{"Molecule": "CCOC(=O)C1CCN(c2ncnc3c2cnn3-c2ccc(OC)cc2)CC1", "cell count": 680}

====

- Procedure Text: inhibitors of E-selectin induction by TNFa, primary screen, imaging, HUVEC, immunofluorescence, MLSMR starter and 10KST1 sets (AID 487);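 further: signal is fraction of cell area covered by stained E-selectin grains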
- Test Conditions: HUVEC TNFalpha-induced E-selectin immunofluorescence imaging, at 2 µM; stronger effect = higher value
Reported inhibition by item:
Value Kind: inhibition (%)

{"Compound": "COc1cc(Cl)c(C)cc1NC(=O)COC(=O)c1cnc(C)cn1", "Value Kind": "inhibition", "Assay Value": -118}
{"Compound": "CCn1cc(C2=NCC(C)O2)c2ccccc21 (configuration not stated)", "Value Kind": "inhibition", "Assay Value": -128}
{"Compound": "Cn1c(=O)c2c(nc(CN3CCCCC3)n2CCCc2ccccc2)n(C)c1=O", "Value Kind": "inhibition", "Assay Value": 38.4}
{"Compound": "CCOC(=O)C1=C(C)N=C2SCCC(=O)N2C1c1cc(Br)ccc1OC (configuration not stated)", "Value Kind": "inhibition", "Assay Value": -16}
{"Compound": "CCSC1=C(C#N)C(c2cccs2)C(C(=O)OC)=C(C)N1 (configuration not stated)", "Value Kind": "inhibition", "Assay Value": -26.7}
{"Compound": "Cc1ccc(CCC(=O)Nc2ccc(S(N)(=O)=O)cc2)o1", "Value Kind": "inhibition", "Assay Value": -67.7}
{"Compound": "CC(C)(C)OC(=O)N1CCCC1C(=O)N1CCc2ccccc21 (configuration not stated)", "Value Kind": "inhibition", "Assay Value": -19.6}
{"Compound": "Cc1cc(C)c2c(=O)n(CC(=O)N3CCC(Cc4ccccc4)CC3)sc2n1", "Value Kind": "inhibition", "Assay Value": -6.1}
{"Compound": "Cc1ccccc1-c1nc(Cc2ccccc2)no1", "Value Kind": "inhibition", "Assay Value": 31.1}
{"Compound": "O=C(CS(=O)CC(=O)Nc1cccc2c1CCCC2)Nc1ccc(F)cc1 (configuration not stated)", "Value Kind": "inhibition", "Assay Value": 26.9}
{"Compound": "CC(C)OC(=O)c1cccc(C(=O)O)n1", "Value Kind": "inhibition", "Assay Value": -285}
{"Compound": "Cc1cccc(N2CCN(C(=O)c3cc4ccccc4oc3=O)CC2)c1C", "Value Kind": "inhibition", "Assay Value": -22.9}
